Hey, just so you know, these numbers are from the SangsterLogP compilation.

measurement.type: logP

Examples with answers:
{"molecule": "O=C(Nc1ccccc1)[C@H]1C[C@@H](F)C1", "measurement.type": "logP", "quantitative.readout": 1.86}
{"molecule": "O=C(NC1CCC(F)(F)C1)c1ccccc1 (configuration not stated)", "measurement.type": "logP", "quantitative.readout": 2.02}
{"molecule": "O=C(NCCCCF)c1ccccc1", "measurement.type": "logP", "quantitative.readout": 1.56}
{"molecule": "O=C(c1ccccc1)N1CC2CCC1(C(F)(F)F)CC2", "measurement.type": "logP", "quantitative.readout": 2.51}
{"molecule": "O=C(N[C@@H]1C[C@H]1C(F)F)c1ccccc1", "measurement.type": "logP", "quantitative.readout": 1.64}

[P] CCC(F)(F)CC(=O)Nc1ccccc1
[Q] O=C(c1ccccc1)N1C[C@@H](F)[C@H](F)C1
Q) Would you let me know which has the greater logP value, P or Q ? Return value: the label identifying the chosen record.
A) P

---

measurement.type: logP

Examples with answers:
{"molecule": "O=C(NC1CC2(C1)CC(F)(F)C2)c1ccccc1", "logP": 2.53}
{"molecule": "O=C(Nc1ccccc1)[C@H]1C[C@H](CF)C1", "logP": 2.14}
{"molecule": "O=C(N[C@H]1C[C@H]1C(F)F)c1ccccc1", "logP": 1.36}
{"molecule": "O=C(NC1CCC(F)(F)CC1)c1ccccc1", "logP": 2.32}
{"molecule": "O=C(N[C@@H]1CC[C@H]1C(F)F)c1ccccc1", "logP": 1.94}

[P] O=C(Nc1ccccc1)[C@H]1C[C@@H]2[C@H](C1)C2(F)F
[Q] O=C(N[C@@H]1CC[C@@H]1F)c1ccccc1
[R] O=C(c1ccccc1)N1CC2CC(C1)CS(=O)(=O)C2
[S] O=C(c1ccccc1)N1C[C@@H](F)[C@@H](F)C1
Q) Rank ascending by logP. Give me the labels in the order the question wants.
A) R, S, Q, P
(R: -0.34, S: 1.01, Q: 1.57, P: 2.37)

[a] O=C(NC1CCCCC1)c1ccccc1
[b] O=C(N[C@H]1C[C@H](CF)C1)c1ccccc1
Q) Would you let me know which has the greater logP value, a or b ? Return value: the label identifying the chosen record.
A) a

[I] O=C(c1ccccc1)N1CC2CCCC(C1)C2(F)F
[II] O=C(c1ccccc1)N1CC2CC1C2
Q) Kindly compare I with II and tell me which has the lower logP figure. Return value: the label identifying the chosen record.
A) II

[P] O=C(N[C@@H]1CC[C@H]1C(F)(F)F)c1ccccc1
[Q] O=C(c1ccccc1)N1CC(C(F)F)C1
Q) Would you let me know which has the greater logP value, P or Q ? Return value: the label identifying the chosen record.
A) P
(P: 2.54, Q: 1.4)

[I] O=C(Nc1ccccc1)C1(C(F)F)CCC1
[II] O=C(Nc1ccccc1)C1CC2(CCC2)C1
Q) Would you let me know which has the greater logP value, I or II ? Return value: the label identifying the chosen record.
A) II

[I] O=C(N[C@H]1C[C@@H](C(F)F)C1)c1ccccc1
[II] O=C(Nc1ccccc1)C1CCCCC1
Q) Kindly compare I with II and tell me which has the lower logP figure. Return value: the label identifying the chosen record.
A) I
(I: 1.98, II: 2.88)

---

measurement.type: logP

{"molecule": "O=C(c1ccccc1)N1CCCC1C(F)F (stereo not drawn)", "logP": 1.88}
{"molecule": "O=C(Nc1ccccc1)[C@@H]1C[C@H]1C(F)(F)F", "logP": 2.98}
{"molecule": "O=C(Nc1ccccc1)[C@H]1C[C@@H](C(F)(F)F)C1", "logP": 2.72}
{"molecule": "O=C(N[C@H]1C[C@@H](F)C1)c1ccccc1", "logP": 1.67}
{"molecule": "O=C(Nc1ccccc1)[C@@H]1C[C@H]1C(F)F", "logP": 2.28}
{"molecule": "O=C(c1ccccc1)N1CC[C@@H](F)[C@@H](F)C1", "logP": 1.15}

[P] O=C(c1ccccc1)N1CC2CCC1(C(F)(F)F)C2 (stereo not drawn)
[Q] O=C(c1ccccc1)N1CC(F)(F)C1
Q) Would you let me know which has the greater logP value, P or Q ? Return value: the label identifying the chosen record.
A) P
